meta.source: PubChem BioAssay (NCATS)

Assay: Quantitative High-Throughput drug screen in 47 multiple myeloma cell lines against the NCATS MIPE library collection: ARD_JJKsccE7 cell viability assay (AID 1918929; further: potency means the concentration at half of the fitted maximal effect;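 on viability: 100% = DMSO-only wells and 0% = media-only wells without cells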)
Details: ARD myeloma cell line viability, CellTiter-Glo, 48 h; series mostly up to 45.8 µM
Inconclusive results are not listed. Calls of active or inactive are those of the source. The call rests on the fitted dose curve; in most records, active means well fitted cell-killing curve with a large enough effect; inconclusive means small, poorly fitted or top-dose-only effect, or effect the other way; inactive means no such curve, though single readings can be large or run the other way.
endpoint name: Potency

Worked examples, 5 compounds total:
compound	Potency
C=CC(=O)Nc1cccc(Nc2nc(NC3CCC(N(C)C)CC3)nc3c2ncn3C(C)C)c1 (stereo not drawn)	0.0105 µM (active)
COc1ccc(C(C)=O)c(O)c1	inactive
C[C@]12C=CC(=O)N[C@@H]1CC[C@H]1[C@H]3CC[C@@H](C(=O)Nc4cc(C(F)(F)F)ccc4C(F)(F)F)[C@@]3(C)CC[C@@H]12	inactive
C=CC(=O)Nc1cc(NC(=O)c2ccc(C)c(NC(=O)c3ccno3)c2)cc(C(F)(F)F)c1	5.9 µM (active)
COc1cc(C(=O)NC2CCN(C)CC2)ccc1Nc1ncc2c(n1)N(C1CCCC1)CCC(=O)N2C(C)C	18.7 µM (active)

Ask: # lookup: Potency of CC(=O)NCC(=O)N1[C@H]2CC[C@H]1c1cc(Nc3ncc(C(F)(F)F)c(NC4CCC4)n3)ccc12
Result: 1.66 µM (active)

Ask: # lookup: Potency of O=C1NC(=O)C(=Cc2ccc3nccc(-c4ccncc4)c3c2)S1
Result: 0.118 µM (active)

Ask: # lookup: Potency of CC(=O)O[C@H]1C[C@@H]2CC[C@H]3[C@H]4C[C@H]([N+]5(C)CCCCC5)[C@@H](OC(C)=O)[C@@]4(C)CC[C@@H]3[C@@]2(C)C[C@H]1N1CCCCC1
Result: inactive

* * *

Test: Quantitative High-Throughput drug screen in 47 multiple myeloma cell lines against the NCATS MIPE library collection: PCM6_Riken cell viability assay (AID 1919870); further: potency means the concentration at half of the fitted maximal effect; nearly all actives have a fitted effect of over 30% in size
Conditions: CellTiter-Glo ATP, 48 h; series mostly up to 45.8 µM
Inconclusive results are not listed. The source made the active and inactive calls. Calls come from the whole dose curve; as a rule, active = well fitted cell-killing curve with a large enough effect; inconclusive = small, poorly fitted or top-dose-only effect, or effect the other way; inactive = no such curve, though single readings can be large or run the other way.
Can you answer with just one of these options? 1 = active, -1 = inactive

compound	group label
C=CC(=O)N1CCc2ccc(-n3c(=O)ccc4cnc5ccc(-c6cnn(C)c6)cc5c43)cc21	1

Ask: Hi, sorry to bother you, what did the test record for COc1cc(OC)cc(-c2ccc3ncc4ccc(=O)n(-c5ccc(N6CCNCC6)c(C(F)(F)F)c5)c4c3c2)c1 ?
Result: 1

Ask: Hi, sorry to bother you, what did the test record for C[C@]12C=CC(=O)N[C@@H]1CC[C@H]1[C@H]3CC[C@@H](C(=O)Nc4cc(C(F)(F)F)ccc4C(F)(F)F)[C@@]3(C)CC[C@@H]12 ?
Result: 1

Ask: Hi, sorry to bother you, what did the test record for CCN(CC)CCCCNc1ncc2c(n1)N(C)C(=O)N(c1c(Cl)c(OC)cc(OC)c1Cl)C2 ?
Result: 1

Ask: Hi, sorry to bother you, what did the test record for Cc1cnc(NC(=O)Nc2cc(Br)c(C)cc2OC[C@@H]2CNCCO2)cn1 ?
Result: 1

Ask: Hi, sorry to bother you, what did the test record for CC(C)NC[C@@H](C(=O)N1CCN(c2ncnc3c2[C@H](C)C[C@H]3O)CC1)c1ccc(Cl)cc1 ?
Result: 1

Ask: Hi, sorry to bother you, what did the test record for NS(=O)(=O)OC[C@@H]1C[C@@H](n2ccc3c(N[C@H]4CCc5ccccc54)ncnc32)C[C@H]1O ?
Result: 1

Ask: Hi, sorry to bother you, what did the test record for CCNC(=O)c1cc2c(-c3cc(OCCN4CCCC4)c(Cl)cc3Cl)nc(N)nc2s1 ?
Result: 1

Ask: Hi, sorry to bother you, what did the test record for COc1cc2c(cc1OC)[C@@H]1C(=O)c3ccc4c(c3O[C@@H]1CO2)C=CC(C)(C)O4 ?
Result: 1

Ask: Hi, sorry to bother you, what did the test record for COc1cc([C@@H]2c3cc4c(cc3[C@@H](O[C@@H]3O[C@@H]5CO[C@@H](c6cccs6)O[C@@H]5[C@H](O)[C@@H]3O)[C@H]3COC(=O)[C@H]23)OCO4)cc(OC)c1O ?
Result: 1

Ask: Hi, sorry to bother you, what did the test record for O=c1c(O)c(-c2ccc(O)c(O)c2)oc2cc(O)ccc12 ?
Result: 1

Ask: Hi, sorry to bother you, what did the test record for CC(C)n1cnc2c(NCCc3ccc(O)cc3)nc(-c3csc4ccccc34)nc21 ?
Result: 1

* * *

Test: qHTS of pediatric cancer cell lines to identify multiple opportunities for drug repurposing: Confirmatory screen for RD cells (AID 1347124);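 further: cells exposed to compound for 48 h before viability readout; nearly all actives have a fitted effect of over 65% in size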
Details: RD rhabdomyosarcoma cell viability; series mostly up to 45.9 µM
Records with an inconclusive call do not appear. Calls of active or inactive are those of the source. Calls come from the whole dose curve; as a rule, active = well fitted cell-killing curve with a large enough effect; inconclusive = small, poorly fitted or top-dose-only effect, or effect the other way; inactive = no such curve, though single readings can be large or run the other way.
Can you answer with just one of these options? y for active, n for inactive

molecular string	group label
CCN(CC)CCNC(=O)c1c(C)[nH]c(C=C2C(=O)Nc3ccc(F)cc32)c1C	y
COc1ccc(C(C)=O)c(O)c1	n

Ask: Hi, sorry to bother you, what did the test record for CC(=O)NCC(=O)N1[C@H]2CC[C@H]1c1cc(Nc3ncc(C(F)(F)F)c(NC4CCC4)n3)ccc12 ?
Result: y

Ask: Hi, sorry to bother you, what did the test record for CC(C)N1[N]C(=C2C=c3cc(O)ccc3=N2)c2c(N)ncnc21 ?
Result: y

Ask: Hi, sorry to bother you, what did the test record for C=CCNC1=C2C[C@@H](C)C[C@H](OC)[C@@H](O)[C@@H](C)C=C(C)[C@H](OC(N)=O)[C@@H](OC)C=CC=C(C)C(=O)NC(=CC1=O)C2=O ?
Result: y

Ask: Hi, sorry to bother you, what did the test record for C[C@H]1[C@@H](OC(=O)CCC(=O)O)O[C@@H]2O[C@@]3(C)CC[C@@H]4[C@H](C)CC[C@@H]1[C@@]24OO3 ?
Result: y

Ask: Hi, sorry to bother you, what did the test record for CC[C@@]1([C@@H]2O[C@@H]([C@H]3O[C@@](O)(CO)[C@H](C)C[C@H]3C)C[C@H]2C)CC[C@H]([C@]2(C)CC[C@]3(C[C@H](O)[C@@H](C)[C@@H]([C@@H](C)[C@@H](OC)[C@H](C)C(=O)O)O3)O2)O1 ?
Result: y

* * *

Test: qHTS assay to identify inhibitors of the type 1 interferon - major histocompatibility complex class I in skeletal muscle: Counter screen cell viability and HiBit confirmation (AID 1347412); further: nearly all actives have a fitted effect of over 60% in size
Details: iHSKM muscle cells + IFN-b, HiBiT or CellTiter-Glo, 24 h; HiBiT
Records with an inconclusive call do not appear. Calls of active or inactive are those of the source. The call rests on the fitted dose curve; in most records, active means well fitted inhibition curve with a large enough effect; inconclusive means small, poorly fitted or top-dose-only effect; inactive means no such curve, though single readings can be large or run the other way. Residues, ends and D or L forms follow the SMILES beside them. *: point of attachment. Cbz = O=C(OCc1ccccc1)*
Can you answer with just one of these options? active, inactive

compound	group label
OCCNC1CCCc2c1[nH]c1ccc(-c3ccccc3)cc21 (configuration not stated)	inactive
CCOC(=O)[C@@H](N)Cc1ccc(-c2cc(O[C@H](c3ccc(Cl)cc3-n3ccc(C)n3)C(F)(F)F)nc(N)n2)cc1	active
CCc1ccc(C(=O)Nc2cc(CN3CCN(C)CC3)cc(C(F)(F)F)c2)cc1C#Cc1cnc2ccnn2c1	active

Ask: Hi, sorry to bother you, what did the test record for Cc1ccc2nc(NCCN)c3ncc(C)n3c2c1 ?
Result: active

Ask: Hi, sorry to bother you, what did the test record for Cc1cnc(Nc2ccc(CN3CCOCC3)cc2)nc1Nc1cccc(S(=O)(=O)NC(C)(C)C)c1 ?
Result: active

Ask: Hi, sorry to bother you, what did the test record for CC(C)C[C@@H](C=O)NC(=O)[C@H](CC(C)C)NC(=O)[C@H](CC(C)C)NC(=O)OCc1ccccc1 (Cbz-Leu-Leu-Leu-aldehyde) ?
Result: active

Ask: Hi, sorry to bother you, what did the test record for COc1cc(O)c2c(c1)C1OC1C[C@H](O)[C@H](O)C(=O)C=CC[C@H](C)OC2=O (some centres not stated) ?
Result: active

Ask: Hi, sorry to bother you, what did the test record for c1cc(N[C@@H]2CCNC2)nc(-c2cnc3ccc(-c4cn[nH]c4)cn23)c1 ?
Result: inactive

Ask: Hi, sorry to bother you, what did the test record for CN(C)CCN1C(=O)c2cccc3cc(N)cc(c23)C1=O ?
Result: active

Ask: Hi, sorry to bother you, what did the test record for Cn1cc(CNCC2CCN(c3ncc(C(=O)NO)cn3)CC2)c2ccccc21 ?
Result: active

Ask: Hi, sorry to bother you, what did the test record for CC(C)c1cc(C(C)C)c(CC(=O)NS(=O)(=O)Oc2c(C(C)C)cccc2C(C)C)c(C(C)C)c1 ?
Result: inactive

Ask: Hi, sorry to bother you, what did the test record for CC(C)(N)c1ccc(-c2nc3ccccc3nc2-c2ccccc2)cc1 ?
Result: inactive

* * *

Experiment: qHTS of pediatric cancer cell lines to identify multiple opportunities for drug repurposing: Confirmatory screen for Rh41 cells (AID 1347123);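 further: potency means the concentration at half of the fitted maximal effect; 48 h compound exposure; nearly all actives have a fitted effect of over 60% in size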
Conditions: Rh41 rhabdomyosarcoma cells, viability/cytotoxicity qHTS; series mostly up to 45.9 µM
Results filed as inconclusive are left out. Active and inactive are the calls of the source. The call rests on the fitted dose curve; in most records, active means well fitted cell-killing curve with a large enough effect; inconclusive means small, poorly fitted or top-dose-only effect; inactive means no such curve, though single readings can be large or run the other way. Residues, ends and D or L forms follow the SMILES beside them. *: point of attachment. Cbz = O=C(OCc1ccccc1)*
endpoint name: Potency

compound	assay value
CCS(=O)(=O)Nc1ccc2[nH]c(O)c(C(=Nc3ccc(CN4CCCCC4)cc3)c3ccccc3)c2c1	522 nM (active)
C[C@@]12C(=O)OC(=O)[C@@]1(C)C1CCC2O1	1850 nM (active)
COc1ccc(C=Cc2cc(OC)c(OC)c(OC)c2)cc1NC(=O)[C@H](N)CO	104 nM (active)
CC(C=CC1=C(C)CCCC1(C)C)=CC=CC(C)=CC(=O)Nc1ccc(O)cc1	5370 nM (active)

Ask: # lookup: Potency of CS[C@H]1SC[C@@H]2C(=O)N(C)[C@H](C(C)C)C(=O)OC[C@H](NC(=O)c3cnc4ccccc4n3)C(=O)N[C@H](C)C(=O)N(C)[C@@H]1C(=O)N(C)[C@H](C(C)C)C(=O)OC[C@H](NC(=O)c1cnc3ccccc3n1)C(=O)N[C@H](C)C(=O)N2C
Result: 5.9 nM (active)

Ask: # lookup: Potency of CC(C)C[C@@H](C=O)NC(=O)[C@H](CC(C)C)NC(=O)[C@H](CC(C)C)NC(=O)OCc1ccccc1 (Cbz-Leu-Leu-Leu-aldehyde)
Result: 1170 nM (active)
